Each recorded value in this set is attributed to the supplement of paper PMC8149375.

Give log10 of GI50 of drug for every item shown.
# Tested on: UO-31
# protocol-description: GI50 of drug in presence of dasatinib; higher = less potent
# measurement-conditions: treatment: drug + dasatinib (fixed dose, not stated); 5 days
Heads up: the numbers are on a log10 scale; they represent GI50 of drug in nM.

Prompt: # get_value(readout='log10 of GI50 of drug', item= O=C1NC(=O)[C@@H](c2cn3c4c(cccc24)CCC3)[C@@H]1c1c[nH]c2ccccc12 [ARQ 197 (Tivantinib)] + Cc1nc(Nc2ncc(C(=O)Nc3c(C)cccc3Cl)s2)cc(N2CCN(CCO)CC2)n1 )
Response: 3.30

Prompt: # get_value(readout='log10 of GI50 of drug', item= CCN(CC)CCNC(=O)c1c(C)[nH]c(/C=C2\C(=O)Nc3ccc(F)cc32)c1C.O=C(O)C[C@H](O)C(=O)O [Sunitinib Malate (Sutent)] + Cc1nc(Nc2ncc(C(=O)Nc3c(C)cccc3Cl)s2)cc(N2CCN(CCO)CC2)n1 )
Response: 3.01

Prompt: # get_value(readout='log10 of GI50 of drug', item= CC1(C)CCC(c2ccc(Cl)cc2)=C(CN2CCN(c3ccc(C(=O)NS(=O)(=O)c4ccc(N[C@H](CCN5CCOCC5)CSc5ccccc5)c(S(=O)(=O)C(F)(F)F)c4)cc3)CC2)C1 [ABT-263 (Navitoclax)] + Cc1nc(Nc2ncc(C(=O)Nc3c(C)cccc3Cl)s2)cc(N2CCN(CCO)CC2)n1 )
Response: 2.60

Prompt: # get_value(readout='log10 of GI50 of drug', item= C[C@@H](Oc1cc(-n2cnc3ccc(CN4CCN(C)CC4)cc32)sc1C(N)=O)c1ccccc1C(F)(F)F + Cc1nc(Nc2ncc(C(=O)Nc3c(C)cccc3Cl)s2)cc(N2CCN(CCO)CC2)n1 )
Response: 1.89

Prompt: # get_value(readout='log10 of GI50 of drug', item= CN(C)Cc1cccc(N/C(=C2\C(=O)Nc3cc(C(=O)N(C)C)ccc32)c2ccccc2)c1 + Cc1nc(Nc2ncc(C(=O)Nc3c(C)cccc3Cl)s2)cc(N2CCN(CCO)CC2)n1 )
Response: 3.85

Prompt: # get_value(readout='log10 of GI50 of drug', item= COC(=O)Nc1ccc(-c2nc(N3CCOCC3)c3cnn(C4CCN(Cc5cccnc5)CC4)c3n2)cc1 [WYE-687] + Cc1nc(Nc2ncc(C(=O)Nc3c(C)cccc3Cl)s2)cc(N2CCN(CCO)CC2)n1 )
Response: 2.76

Prompt: # get_value(readout='log10 of GI50 of drug', item= CC(=O)Nc1nc(C)c(-c2ccc(Cl)c(S(=O)(=O)NCCO)c2)s1 [PIK-93] + Cc1nc(Nc2ncc(C(=O)Nc3c(C)cccc3Cl)s2)cc(N2CCN(CCO)CC2)n1 )
Response: 3.64
